Target: Xanthine dehydrogenase/oxidase (Rattus norvegicus)
Sequence (P22985 whole entry): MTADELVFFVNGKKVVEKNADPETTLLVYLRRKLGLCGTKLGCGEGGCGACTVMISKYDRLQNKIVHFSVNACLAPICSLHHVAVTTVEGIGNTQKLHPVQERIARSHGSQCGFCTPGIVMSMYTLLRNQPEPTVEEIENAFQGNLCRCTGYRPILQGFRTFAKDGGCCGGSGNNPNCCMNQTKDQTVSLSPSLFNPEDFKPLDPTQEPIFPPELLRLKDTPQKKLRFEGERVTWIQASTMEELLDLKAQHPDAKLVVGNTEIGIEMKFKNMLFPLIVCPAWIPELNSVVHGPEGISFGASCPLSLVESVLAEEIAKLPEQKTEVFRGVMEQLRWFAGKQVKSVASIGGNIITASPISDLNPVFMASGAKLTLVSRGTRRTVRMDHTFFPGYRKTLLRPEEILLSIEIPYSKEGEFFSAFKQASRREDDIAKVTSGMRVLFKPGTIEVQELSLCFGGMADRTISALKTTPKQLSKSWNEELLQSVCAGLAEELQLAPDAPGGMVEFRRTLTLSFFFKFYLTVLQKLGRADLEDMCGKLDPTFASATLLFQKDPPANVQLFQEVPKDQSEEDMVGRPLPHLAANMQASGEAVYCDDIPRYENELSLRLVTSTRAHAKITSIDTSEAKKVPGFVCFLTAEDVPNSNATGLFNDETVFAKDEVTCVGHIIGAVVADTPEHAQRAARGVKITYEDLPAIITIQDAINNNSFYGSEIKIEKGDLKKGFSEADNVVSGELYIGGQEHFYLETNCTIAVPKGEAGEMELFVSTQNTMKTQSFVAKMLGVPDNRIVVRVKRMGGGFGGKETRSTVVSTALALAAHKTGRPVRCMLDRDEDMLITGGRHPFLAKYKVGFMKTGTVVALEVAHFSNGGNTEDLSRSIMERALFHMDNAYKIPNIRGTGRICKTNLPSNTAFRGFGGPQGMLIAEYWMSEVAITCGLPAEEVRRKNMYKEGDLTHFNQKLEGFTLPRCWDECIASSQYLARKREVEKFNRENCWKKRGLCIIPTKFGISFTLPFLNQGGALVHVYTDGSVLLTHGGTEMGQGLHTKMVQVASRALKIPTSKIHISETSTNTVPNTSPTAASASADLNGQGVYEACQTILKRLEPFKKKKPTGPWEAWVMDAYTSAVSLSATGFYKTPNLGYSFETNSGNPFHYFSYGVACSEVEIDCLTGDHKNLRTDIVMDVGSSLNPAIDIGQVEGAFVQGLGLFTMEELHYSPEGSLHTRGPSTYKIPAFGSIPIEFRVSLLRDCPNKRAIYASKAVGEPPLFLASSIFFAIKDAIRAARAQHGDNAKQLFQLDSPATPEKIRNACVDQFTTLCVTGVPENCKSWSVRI
Experiment: Inhibition of Wistar albino rat xanthine oxidase isolated from liver using xanthine as substrate incubated for 15 mins prior to substrate addition by spectrophotometric analysis
pIC50: −log10 of the molar value.
MEASURED_METRIC: pIC50

>>> reported("Clc1ccc(-c2csc(N3N=C(c4cc(Cl)sc4Cl)CC3c3ccc(Cl)cc3)n2)cc1 (stereo not drawn)")
4.44
>>> reported("CCCCc1nc(Cl)c(C2CC(c3cc(Cl)sc3S(N)(=O)=O)=NN2c2nc(-c3ccc(Cl)cc3)cs2)[nH]1 (stereo not drawn)")
4.62
>>> reported("NS(=O)(=O)c1sc(Cl)cc1C1=NN(c2nc(-c3ccc(Cl)cc3)cs2)C(c2ccc(Cl)cc2)C1 (stereo not drawn)")
4.47
>>> reported("Oc1ncnc2[nH]ncc12")
5.22
>>> reported("CN(C)c1ccc(C2CC(c3cc(Cl)sc3S(N)(=O)=O)=NN2c2nc(-c3ccc(Cl)cc3)cs2)cc1 (stereo not drawn)")
5.08
